Target: AKT1 WT (Homo sapiens, UniProt P31749)
Construct: expressed in transfected cells; host or cells: HEK293
Sequence (P31749 whole entry): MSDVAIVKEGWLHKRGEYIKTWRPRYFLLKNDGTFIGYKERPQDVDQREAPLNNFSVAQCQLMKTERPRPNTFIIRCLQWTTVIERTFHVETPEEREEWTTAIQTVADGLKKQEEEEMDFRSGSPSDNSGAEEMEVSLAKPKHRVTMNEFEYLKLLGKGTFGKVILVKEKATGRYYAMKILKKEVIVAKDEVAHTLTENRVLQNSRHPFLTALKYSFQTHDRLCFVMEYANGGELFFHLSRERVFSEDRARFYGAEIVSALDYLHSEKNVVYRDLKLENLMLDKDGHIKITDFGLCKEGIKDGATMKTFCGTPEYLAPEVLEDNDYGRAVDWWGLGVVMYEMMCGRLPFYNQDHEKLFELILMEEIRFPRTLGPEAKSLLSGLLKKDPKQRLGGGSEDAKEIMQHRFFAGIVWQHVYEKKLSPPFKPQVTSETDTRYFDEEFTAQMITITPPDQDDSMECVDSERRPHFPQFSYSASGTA
Assay: Live cell AKT1 WT target engagement by NanoBRET competitive probe displacement in HEK293 cells
Format: binding
Conditions: NanoBRET competitive probe displacement, live HEK293 cells, 2 h at 37° C.; read-out: AKT1 WT IC50
Method: Determining live cell AKT1 E17K, AKT1 WT, and AKT2 target engagement by NanoBRET competitive probe displacement. […] Briefly, HEK293 cells were transfected with plasmids encoding kinase-NanoLuciferase fusion proteins overnight. […] After incubation for 2 h at 37° C., luciferase substrate and extracellular luciferase inhibitor were added to all wells, and luminescent intensity at 460 nm and 600 nm were measured on a multimode plate-reader. […]
pIC50: −log10 of the molar value.
observed_property: pIC50

Nc1ncccc1-c1nc2ccc(-n3ccc(Oc4ccccn4)n3)nc2n1-c1ccc2c(c1)CC[C@@H]2NC1CCN(C(=O)C2CC2)CC1 [Compound 574]; 7.28

[1] Nc1ncccc1-c1nc2ccc(-n3cccn3)nc2n1-c1ccc2c(c1)CC[C@@H]2NC1CC2(CCN(c3ccccn3)CC2)C1 [Compound 449]
[2] Nc1ncccc1-c1nc2ccc(-n3cccn3)nc2n1-c1ccc2c(c1)CC[C@@H]2NC1Cc2cccnc2C1 (stereo partly shown) [Compound 530]
Sorting by pIC50 in descending order, would 1 or 2 appear first? Provide the label of your selected option as the answer. 2

* * *

molecular target: AKT1 E17K (Homo sapiens, UniProt P31749, E17K); construct: expressed in transfected cells; host or cells: HEK293; assay: Live cell AKT1 E17K target engagement by NanoBRET competitive probe displacement in HEK293 cells; assay type: binding; conditions: NanoBRET live cell target engagement, HEK293 cells, 2 h at 37° C.
Sequence (P31749 whole entry E17K): as the sequence (P31749 whole entry) above, with E17K counted along it
observed_property: IC50

The following compounds have reported results that may help.
Nc1ncccc1-c1nc2ccc(-n3cccn3)nc2n1-c1ccc2c(c1)CC[C@@H]2N; > 1000 nM
Nc1ncccc1-c1nc2ccc(-n3cccn3)nc2n1-c1ccc2c(c1)CC[C@@H]2NC(=O)Cc1ccccn1; > 1000 nM

Note: attention shifts to another entry.
Please fill in: IC50 reported for "Nc1ncccc1-c1nc2ccc(-n3cccn3)nc2n1-c1ccc2c(c1)CC[C@@H]2NC(=O)C1CC1" = > 1000 nM

* * *

Biological target: AKT1 E17K (Homo sapiens, UniProt P31749, E17K)
Construct: expressed in transfected cells; host or cells: HEK293
Experiment: Live cell AKT1 E17K target engagement by NanoBRET competitive probe displacement in HEK293 cells
Assay type: binding
Conditions: NanoBRET live cell target engagement, HEK293 cells, 2 h at 37° C.
Description: Determining live cell AKT1 E17K, AKT1 WT, and AKT2 target engagement by NanoBRET competitive probe displacement. Live cell target engagement assays were performed as described (Vasta, J. D. et al. Cell Chem Biol 2018, 25(11), 206-214). […] After incubation for 2 h at 37° C., luciferase substrate and extracellular luciferase inhibitor were added to all wells, and luminescent intensity at 460 nm and 600 nm were measured on a multimode plate-reader. […]
Recorded IC50 values for a group of compounds are listed next.

Nc1ncccc1-c1nc2ccc(-n3cccn3)nc2n1-c1ccc2c(c1)CC(F)[C@@H]2NC1CCN(C(=O)C2CC2)CC1 (single isomer, unassigned) [Compound 385]; > 856 nM
Nc1ncccc1-c1nc2ccc(-n3cccn3)nc2n1-c1ccc2c(c1)CC[C@@H]2NC1CCN(C(=O)c2ccccn2)CC1; > 1000 nM

// IC50 (AKT1 E17K (Homo sapiens, UniProt P31749, E17K)) for "CC(=O)N[C@H]1CCc2cc(-n3c(-c4cccnc4N)nc4ccc(-n5cccn5)nc43)ccc21" = > 1000 nM

// IC50 (AKT1 E17K (Homo sapiens, UniProt P31749, E17K)) for "Nc1ncccc1-c1nc2ccc(-n3cccn3)nc2n1-c1ccc2c(c1)CC[C@@H]2NC(=O)Cc1ccncc1" = > 1000 nM

// IC50 (AKT1 E17K (Homo sapiens, UniProt P31749, E17K)) for "N#CC1(C(=O)N2CCC(N[C@H]3CCc4cc(-n5c(-c6cccnc6N)nc6ccc(-n7cccn7)nc65)ccc43)CC2)CC1" = > 1000 nM

// IC50 (AKT1 E17K (Homo sapiens, UniProt P31749, E17K)) for "CN1CCC(N[C@H]2CCc3cc(-n4c(-c5cccnc5N)nc5ccc(-n6cccn6)nc54)ccc32)CC1" = > 1000 nM

// IC50 (AKT1 E17K (Homo sapiens, UniProt P31749, E17K)) for "Nc1ncccc1-c1nc2ccc(-n3cccn3)nc2n1-c1ccc2c(c1)CC[C@@H]2NC(=O)COc1ccon1" = > 1000 nM

// IC50 (AKT1 E17K (Homo sapiens, UniProt P31749, E17K)) for "Nc1ncccc1-c1nc2ccc(-n3cccn3)nc2n1-c1ccc2c(c1)CC[C@@H]2NC1CCN(C(=O)C2(F)CC2)CC1" = 810 nM

// IC50 (AKT1 E17K (Homo sapiens, UniProt P31749, E17K)) for "Nc1ncccc1-c1nc2ccc(-n3cccn3)nc2n1-c1ccc2c(c1)CC[C@@H]2NC(=O)c1cncnc1" = 36 nM

// IC50 (AKT1 E17K (Homo sapiens, UniProt P31749, E17K)) for "Nc1ncccc1-c1nc2ccc(-n3cccn3)nc2n1-c1ccc2c(c1)CC[C@@H]2NC(=O)c1ccc2oncc2c1" = 137 nM

// IC50 (AKT1 E17K (Homo sapiens, UniProt P31749, E17K)) for "C#CC1(OCC(=O)N[C@H]2CCc3cc(-n4c(-c5cccnc5N)nc5ccc(-n6cccn6)nc54)ccc32)COC1" = > 1000 nM

Source: patent US12624034B2
